# assay.summary: Lawson test (cardiac antifibrillatory power, chloroform)
# protocol.conditions: in vivo, ip; mouse, intraperitoneal; read-out: Maximum Dose Tolerated
Below, each entry is listed alongside its reported MTD.
State the answer as a number, implicitly in mg/kg.

Solved entries:
CC1(NC(=O)c2ccccc2)C2CC3CC1CN(C2)C3(C)C (stereo not drawn) [Example 7]: 150
CC1(NC(=O)CCc2ccccc2)C2CC3CC1CN(C2)C3(C)C (stereo not drawn) [Example 4]: 200
CC1(NC(=O)c2ccc(N)cc2)C2CC3CC1CN(C2)C3(C)C (stereo not drawn) [Example 3]: 50
CC1(NC(=O)Cc2ccccc2)C2CC3CC1CN(C2)C3(C)C (stereo not drawn) [Example 9]: 200
COc1ccc(C(=O)NC2(C)C3CC4CC2CN(C3)C4(C)C)cc1 (stereo not drawn) [Example 8]: 100

Next compound, MTD to be filled in.
Query: Would you kindly share the measured MTD for COc1ccc(CCC(=O)NC2(C)C3CC4CC2CN(C3)C4(C)C)cc1 (stereo not drawn) [Example 5] ?
Reply: 200

----------
# assay.summary: Acute toxicity in the mouse (LD 50, Litchfield and Wilcoxon)
# protocol.conditions: in vivo, ip, intraperitoneal, read-out: LD 50 I.P.
The label y is reserved for LD50 strictly under 200 mg/kg; n covers values equal to or above it.

CC1(NC(=O)CC(c2ccccc2)c2ccccc2)C2CC3CC1CN(C2)C3(C)C (single isomer, unassigned): y
CC1(NC(=O)c2ccc(N)cc2)C2CC3CC1CN(C2)C3(C)C (stereo not shown): y
CC1(NC(=O)Cc2ccccc2)C2CC3CC1CN(C2)C3(C)C (stereo not shown): n
CC1(NC(=O)c2ccccc2)C2CC3CC1CN(C2)C3(C)C (stereo not shown): n
CC1(NC(=O)CCc2ccccc2)C2CC3CC1CN(C2)C3(C)C (stereo not shown): n
COc1ccc(CCC(=O)NC2(C)C3CC4CC2CN(C3)C4(C)C)cc1 (stereo not shown): n

Here is the next item to consider.
Query: Below 200 mg/kg on LD50? Entry COc1ccc(C(=O)NC2(C)C3CC4CC2CN(C3)C4(C)C)cc1 (stereo not shown)
Reply: n

----------
# Tested on: ventricular arrhythmias and death induced by the aconitine
# assay.summary: Aconitine intoxication test in the anesthetized rat
# Assay type: in vivo
# protocol.conditions: i.v., 20 mg/kg; vs untreated control
property.measured: Prolongation of time of appearance of ventricular extrasystoles (ESV)

Query: Need Prolongation of time of appearance of ventricular extrasystoles (ESV) of CC1(NC(=O)Cc2ccccc2)C2CC3CC1CN(C2)C3(C)C (centres unmarked) , thanks.
Reply: +100%

Query: Which Prolongation of time of appearance of ventricular extrasystoles (ESV) reading was recorded for the compound COc1ccc(CCC(=O)NC2(C)C3CC4CC2CN(C3)C4(C)C)cc1 (centres unmarked) ?
Reply: +65%

Query: Consider the compound shown here: COc1ccc(C(=O)NC2(C)C3CC4CC2CN(C3)C4(C)C)cc1 (centres unmarked) What is its recorded Prolongation of time of appearance of ventricular extrasystoles (ESV)?
Reply: +98%

Query: Would you mind telling me what Prolongation of time of appearance of ventricular extrasystoles (ESV) value was observed for CC1(NC(=O)CCc2ccccc2)C2CC3CC1CN(C2)C3(C)C (centres unmarked) ?
Reply: +103%

Query: What value of measured Prolongation of time of appearance of ventricular extrasystoles (ESV) is listed for CC1(NC(=O)c2ccccc2)C2CC3CC1CN(C2)C3(C)C (centres unmarked) ?
Reply: +111%

----------
# Test system: ventricular arrhythmias and death induced by the aconitine
# assay.summary: Aconitine intoxication test in the anesthetized rat
# Type: in vivo
# protocol.conditions: i.v., 20 mg/kg; vs untreated control
# Protocol: Narcisse et al, Ann. Pharma. […] The anesthetized rat was intoxicated with an intravenous perfusion of aconitine while its electrocardiogram (ECG) was permanently recorded. During the perfusion at constant rate, the time necessary for the appearance of ventricular arrhythmias, successive extrasystoles (ESV), then stable ventricular tachycardium (TV) and the time within which the animal died were measured. […]
The entries below are paired with their reported Prolongation of time of appearance of ventricular tachycardium (TV).

As a guide, the following entries are already answered.
COc1ccc(C(=O)NC2(C)C3CC4CC2CN(C3)C4(C)C)cc1 (centres unmarked): +107%
CC1(NC(=O)CCc2ccccc2)C2CC3CC1CN(C2)C3(C)C (centres unmarked): +89%
COc1ccc(CCC(=O)NC2(C)C3CC4CC2CN(C3)C4(C)C)cc1 (centres unmarked): +54%

Query: Prolongation of time of appearance of ventricular tachycardium (TV); subject: CC1(NC(=O)c2ccccc2)C2CC3CC1CN(C2)C3(C)C (centres unmarked)
Reply: +105%

Query: Record request: Prolongation of time of appearance of ventricular tachycardium (TV) value, item CC1(NC(=O)Cc2ccccc2)C2CC3CC1CN(C2)C3(C)C (centres unmarked)
Reply: +79%

----------
# System: ventricular arrhythmias and death induced by the aconitine
# assay.summary: Aconitine intoxication test in the anesthetized rat
# Type: in vivo
# protocol.conditions: i.v., 5 mg/kg; vs untreated control
property.measured: Prolongation of time to death

See these solved cases before continuing.
CC1(NC(=O)c2ccccc2)C2CC3CC1CN(C2)C3(C)C (stereo not shown) [Example 7]: +29%
COc1ccc(CCC(=O)NC2(C)C3CC4CC2CN(C3)C4(C)C)cc1 (stereo not shown) [Example 5]: +21%
COc1ccc(C(=O)NC2(C)C3CC4CC2CN(C3)C4(C)C)cc1 (stereo not shown) [Example 8]: +46%

Next compound, Prolongation of time to death to be filled in.
Query: Using the record for CC1(NC(=O)CCc2ccccc2)C2CC3CC1CN(C2)C3(C)C (stereo not shown) [Example 4] , report its Prolongation of time to death.
Reply: +25%
